- test_name: toxicity evaluation, alamarBlue assay
- Format: cell-based, human
- protocol_conditions: human, MCF-10A cells; 0.5 μM, 48 h
parameter: viability at 48 h, 0.5 µM

* COc1ccc(C(c2cc(OC)c(OC)c(OC)c2)n2ccnc2)cc1O (centres unmarked) [21l] | ~100%
* COc1ccc(C(c2cc(OC)c(OC)c(OC)c2)n2cncn2)cc1O (centres unmarked) [19e] | ~100%

====

Attribute: Growth percentage
- Tested on: OVCAR-5
- test_name: NCI 60 cell line screen (Ovarian Cancer)
- Format: cell-based, human
- protocol_conditions: OVCAR-5, single dose 10 µM
parameter: Growth percentage (%)

- COc1ccc(C(c2cc(OC)c(OC)c(OC)c2)n2cncn2)cc1O (centres unmarked) [19e]: 72.98
- COc1ccc(C(c2cc(OC)c(OC)c(OC)c2)N2CCCC2)cc1 (centres unmarked) [25g]: 92.64
- COc1ccc(C(c2cc(OC)c(OC)c(OC)c2)N2CCN(Cc3ccccc3)CC2)cc1 (centres unmarked) [27d]: 84.69
- COc1ccc(C(c2cc(OC)c(OC)c(OC)c2)n2ccnc2)cc1O (centres unmarked) [21l]: 71.11
- COc1ccc(C(c2cc(OC)c(OC)c(OC)c2)N2CCCCC2)cc1 (centres unmarked) [26b]: 69.57

====

- test_name: toxicity evaluation, alamarBlue assay
- Format: cell-based, human
- protocol_conditions: human, MCF-10A cells; 10 μM, 72 h; read-out: percentage of viable cells
parameter: viability at 72 h, 10 µM (%)

* COc1ccc(C(c2cc(OC)c(OC)c(OC)c2)n2nccn2)cc1O (stereo not shown) [compound 24] | 61

====

- test_name: toxicity evaluation, alamarBlue assay
- Assay type: cell-based, human
- protocol_conditions: human, MCF-10A cells; 1 μM, 48 h; read-out: percentage of viable cells
parameter: viability at 48 h, 1 µM (%)

• COc1ccc(C(c2cc(OC)c(OC)c(OC)c2)n2ccnc2)cc1O (centres unmarked) [21l] = 64

====

- test_name: toxicity evaluation, alamarBlue assay
- Assay type: cell-based, human
- protocol_conditions: human, MCF-10A cells; 0.4 μM, 48 h
parameter: viability at 48 h, 0.4 µM

- COc1ccc(C(c2cc(OC)c(OC)c(OC)c2)n2cncn2)cc1O (centres unmarked) [19e]: ~100%
- COc1ccc(C(c2cc(OC)c(OC)c(OC)c2)n2ccnc2)cc1O (centres unmarked) [21l]: ~100%

====

- Test system: HS 578T
- test_name: NCI 60 cell line screen (Breast Cancer)
- Type: cell-based, human
- protocol_conditions: single dose 10 µM
Attribute: Growth percentage
parameter: Growth percentage

* COc1ccc(C(c2cc(OC)c(OC)c(OC)c2)n2cncn2)cc1O (stereo not shown) [19e] | 31.34%
* COc1ccc(C(c2cc(OC)c(OC)c(OC)c2)N2CCCC2)cc1 (stereo not shown) [25g] | 80.45%
* COc1ccc(C(c2cc(OC)c(OC)c(OC)c2)N2CCN(Cc3ccccc3)CC2)cc1 (stereo not shown) [27d] | 59.07%
* COc1ccc(C(c2cc(OC)c(OC)c(OC)c2)n2ccnc2)cc1O (stereo not shown) [21l] | 29.10%

====

- System: DU-145
- test_name: NCI 60 cell line screen (Prostate cancer)
- Format: cell-based, human
- protocol_conditions: DU-145, single dose 10 µM
parameter: Growth percentage (%)

- COc1ccc(C(c2cc(OC)c(OC)c(OC)c2)N2CCCC2)cc1 (centres unmarked) [25g]: 103.12
- COc1ccc(C(c2cc(OC)c(OC)c(OC)c2)n2ccnc2)cc1O (centres unmarked) [21l]: 12.91
- COc1ccc(C(c2cc(OC)c(OC)c(OC)c2)N2CCN(Cc3ccccc3)CC2)cc1 (centres unmarked) [27d]: 102.00
- COc1ccc(C(c2cc(OC)c(OC)c(OC)c2)n2cncn2)cc1O (centres unmarked) [19e]: 19.64
- COc1ccc(C(c2cc(OC)c(OC)c(OC)c2)N2CCCCC2)cc1 (centres unmarked) [26b]: 64.18
